# System: H460 cells
# TEST: 72-hour resazurin-based cytotoxicity assay, H460
# Type: cell-based, human
# ASSAY SETUP: H460, lung carcinoma
REPORTED PROPERTY: IC50

The reported H460 cells IC50 of CCOC(=O)C(C)Oc1cccc2c(=O)n(CC(=O)Nc3ccc4c(c3)OCCO4)ccc12 (stereo not shown) is > 20 µM

###

# System: THP-1 cells
# TEST: 72-hour resazurin-based cytotoxicity assay, THP-1
# Assay type: cell-based, human
# ASSAY SETUP: THP-1, KMT2A-r t(9;11), infant AML
REPORTED PROPERTY: pIC50
Give bare numbers, as −log10 of the molar value.

The reported THP-1 cells pIC50 of CCOC(=O)C(C)Oc1cccc2c(=O)n(CC(=O)Nc3ccc4c(c3)OCCO4)ccc12 (stereo not shown) is 5.59
